Notes on IC50 obtained with USP1 enzyme (Homo sapiens).
Sequence (O94782 whole entry): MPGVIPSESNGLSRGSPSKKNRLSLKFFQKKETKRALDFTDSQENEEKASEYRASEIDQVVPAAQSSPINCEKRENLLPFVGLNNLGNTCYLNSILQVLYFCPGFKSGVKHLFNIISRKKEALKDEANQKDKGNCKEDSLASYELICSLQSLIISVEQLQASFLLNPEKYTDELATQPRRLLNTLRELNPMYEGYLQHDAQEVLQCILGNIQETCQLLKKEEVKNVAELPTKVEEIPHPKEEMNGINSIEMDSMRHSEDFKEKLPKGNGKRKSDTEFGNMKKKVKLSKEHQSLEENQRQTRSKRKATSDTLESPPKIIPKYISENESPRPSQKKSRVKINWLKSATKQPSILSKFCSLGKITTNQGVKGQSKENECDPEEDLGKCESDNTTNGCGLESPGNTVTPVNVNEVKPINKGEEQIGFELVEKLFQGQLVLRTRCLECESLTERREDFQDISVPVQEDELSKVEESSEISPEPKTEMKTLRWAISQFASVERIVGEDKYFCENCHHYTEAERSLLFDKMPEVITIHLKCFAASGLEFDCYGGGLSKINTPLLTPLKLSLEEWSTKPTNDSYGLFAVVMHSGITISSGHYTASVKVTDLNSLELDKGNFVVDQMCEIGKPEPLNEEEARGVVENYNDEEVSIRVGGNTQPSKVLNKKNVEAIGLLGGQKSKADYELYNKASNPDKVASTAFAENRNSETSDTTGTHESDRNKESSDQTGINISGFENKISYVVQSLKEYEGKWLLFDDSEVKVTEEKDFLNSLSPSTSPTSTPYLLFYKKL
Sequence (Q8TAF3 whole entry partner): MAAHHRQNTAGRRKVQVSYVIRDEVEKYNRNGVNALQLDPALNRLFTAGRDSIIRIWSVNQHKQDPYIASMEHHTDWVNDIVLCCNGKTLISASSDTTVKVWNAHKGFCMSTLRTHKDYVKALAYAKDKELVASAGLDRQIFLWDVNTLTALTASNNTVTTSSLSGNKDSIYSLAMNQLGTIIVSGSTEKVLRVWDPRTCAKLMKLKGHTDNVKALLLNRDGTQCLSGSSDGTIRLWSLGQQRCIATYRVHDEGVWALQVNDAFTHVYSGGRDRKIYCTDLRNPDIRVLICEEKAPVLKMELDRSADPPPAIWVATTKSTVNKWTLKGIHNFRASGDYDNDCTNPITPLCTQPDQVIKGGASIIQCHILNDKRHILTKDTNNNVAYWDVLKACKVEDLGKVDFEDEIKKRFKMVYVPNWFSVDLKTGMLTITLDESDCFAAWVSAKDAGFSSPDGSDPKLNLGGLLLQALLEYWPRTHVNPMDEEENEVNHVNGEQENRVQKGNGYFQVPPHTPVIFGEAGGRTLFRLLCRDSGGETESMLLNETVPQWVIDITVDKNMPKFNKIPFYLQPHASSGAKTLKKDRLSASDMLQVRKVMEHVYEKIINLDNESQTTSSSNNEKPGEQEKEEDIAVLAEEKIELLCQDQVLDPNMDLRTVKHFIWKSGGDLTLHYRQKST

q: Consider the molecule CC(C)c1ncccc1-c1ncc(P(C)(C)=O)c(NCc2ccc(-c3nc(C(F)(F)F)cn3C)cc2)n1 and give its measured IC50.
a: > 100 nM

q: I'd like to know its IC50. The molecule in question is COc1ncnc(C2CC2)c1-c1ncc(P(C)(C)=O)c(NCc2ccc(-n3nc(C(F)(F)F)cc3C3CC3)c(F)c2)n1
a: < 50 nM

q: Using the record for COc1cccc(C2CC2)c1-c1ncc(P(C)(C)=O)c(NCc2ccc(-c3nc(C(F)(F)F)cn3C)cc2)n1 , report its IC50.
a: 50 to 100 nM

q: So what does the record say about IC50 for COc1ncnc(C2CC2)c1-c1ncc(P(C)(C)=O)c(NCc2ccc(-n3nc(C(F)(F)F)cc3C3CC3)cc2)n1 ?
a: < 50 nM

q: Given COc1ncnc(C2CC2)c1-c1ncc(P(C)(C)=O)c(NCC23C4C5C2C2C3C4C52c2nc(C(F)(F)F)cn2C)n1 (stereo not drawn) , state its recorded IC50.
a: < 50 nM

q: // IC50 lookup, key: COc1ncnc(C2CC2)c1-c1ncc(P(C)(C)=O)c(NCc2ccc(-n3nc(C(F)(F)F)cc3C)c(F)c2)n1
a: < 50 nM

* * *

Tested on: MDA-MB-436
Assay: Cell survival analysis (CellTiter-Glo, 10 days culture)
Format: cell-based
Settings: Homo sapiens, MDA-MB-436, 240 h, read-out: Cell growth IC50 grade
pIC50: −log10 of the molar value.
quantity.name: pIC50

q: Tell me the measured pIC50 of COc1ncnc(C2CC2)c1-c1ncc(P(C)(C)=O)c(NCC23C4C5C2C2C3C4C52c2nc(C(F)(F)F)cn2C)n1 (stereo not shown) , please.
a: > 7.00
